biological target: aldose reductase (Bos taurus); construct: preparation of the enzyme from bovine lens; from tissue; host or cells: bovine lens; test: aldose reductase inhibiting effects in vitro (Table I, IN VITRO); type: biochemical, bovine (lens); details: read-out: % Inhibition IN VITRO
measured-parameter: inhibition at 1 µM (%)
Give bare numbers, in %.

A selection of reference data follows.
COc1ccc2c(C(=O)N(C)CC(=O)O)c(Oc3ccccc3)ccc2c1C(F)(F)F; 93
COc1ccc2c(C(=S)N(C)CC(=O)O)c(F)ccc2c1C(F)(F)F; 94
COc1ccc2c(C(=S)N(C)CC(=O)O)c(OCc3ccccc3)ccc2c1C(F)(F)F; 96

// query Tell me its inhibition at 1 µM on aldose reductase (Bos taurus): `COc1ccc2c(C(=O)N(C)CC(=O)O)c(F)ccc2c1C(F)(F)F`
// result 93

* * *

Answer each item with its documented inhibition at 10 µM.
molecular target: aldose reductase (Bos taurus); construct: preparation of the enzyme from bovine lens; from tissue; host or cells: bovine lens; experiment: aldose reductase inhibiting effects in vitro (Table I, IN VITRO); type: biochemical, bovine (lens); conditions: read-out: % Inhibition IN VITRO
One number for each entry, in %.

A selection of reference data follows.
COc1ccc2c(C(=O)N(C)CC(=O)O)c(OCC(F)(F)F)ccc2c1C(F)(F)F [Example 3]; 96
COc1ccc2c(C(=O)N(C)CC(=O)O)c(F)ccc2c1C(F)(F)F [F O OH]; 94
COc1ccc2c(C(=S)N(C)CC(=O)O)c(OCC(F)(F)F)ccc2c1C(F)(F)F [Example 5]; 99

Parameters: items (list). Returns: inhibition at 10 µM for each item.
1. COc1ccc2c(C(=S)N(C)CC(=O)O)c(F)ccc2c1C(F)(F)F [F S OH]
2. COc1ccc2c(C(=S)N(C)CC(=O)O)c(OCc3ccccc3)ccc2c1C(F)(F)F

// result
99
96

* * *

System: dulcitol accumulation
Assay: lowering of dulcitol (galactitol) accumulation in tissues of galactosemic rats (Table I, IN VIVO)
Design: species or system rat (Sprague-Dawley)
Conditions: diaphragm; 24 mg/kg; galactosemic rats, 4 days
Protocol: Such experiments are exemplified hereinbelow after the listing of the following general comments pertaining to these experiments: (a) Four or more groups of six male rats, […], Sprague-Dawley strain, were used. […] In experiments involving compound administration in the diet, the average dose administered was calculated from the actual food intake of the animals in each group. […]
Answer each item with its documented % Lowering dulcitol accumulation IN VIVO, D.
One number for each entry, in %.

COc1ccc2c(C(=S)N(C)CC(=O)O)c(Cl)ccc2c1C(F)(F)F [Example 10]; 90

Parameters: items (list). Returns: % Lowering dulcitol accumulation IN VIVO, D for each item.
1. COc1ccc2c(C(=O)N(C)CC(N)=O)c(Cl)ccc2c1C(F)(F)F [Example 2]
2. COc1ccc2c(C(=O)N(C)CC(N)=O)c(F)ccc2c1C(F)(F)F [Example 1]

// result
1. 53
2. 75

* * *

molecular target: aldose reductase (Bos taurus); construct: preparation of the enzyme from bovine lens; from tissue; host or cells: bovine lens; assay: aldose reductase inhibiting effects in vitro (Table I, IN VITRO); format: biochemical, bovine (lens); conditions: 10^-7 M; read-out: % Inhibition IN VITRO
Kindly return Criterion met if reported inhibition at 0.1 µM is no lower than 80%; return Criterion not met if it is lower.

COc1ccc2c(C(=O)N(C)CC(=O)O)c(Cl)ccc2c1C(F)(F)F; Criterion not met

// query Check this molecule for inhibition at 0.1 µM at or above 80%: `COc1ccc2c(C(=S)N(C)CC(=O)O)c(OCC(F)(F)F)ccc2c1C(F)(F)F`
// result Criterion met

// query Check this molecule for inhibition at 0.1 µM at or above 80%: `CCOc1ccc2c(C(F)(F)F)c(OC)ccc2c1C(=S)N(C)CC(=O)O`
// result Criterion met

// query Check this molecule for inhibition at 0.1 µM at or above 80%: `COc1ccc2c(C(=S)N(C)CC(=O)O)c(OCc3ccccc3)ccc2c1C(F)(F)F`
// result Criterion met

* * *

target: aldose reductase (Bos taurus, UniProt P16116); construct: preparation of the enzyme from bovine lens; from tissue; host or cells: bovine lens; experiment: aldose reductase inhibiting effects in vitro (Table I, IN VITRO); type: biochemical, bovine (lens); conditions: read-out: % Inhibition IN VITRO
measured-parameter: inhibition at 10 µM (%)
Give bare numbers, in %.

COc1ccc2c(C(F)(F)F)c(OC)ccc2c1C(=O)N(C)CC(=O)O; 99

Parameters: items (list). Returns: inhibition at 10 µM for each item.
1. COc1ccc2c(C(=O)N(C)CC(=O)O)c(Oc3ccccc3)ccc2c1C(F)(F)F
2. CCOc1ccc2c(C(F)(F)F)c(OC)ccc2c1C(=S)N(C)CC(=O)O

// result
93
98

* * *

target: aldose reductase (Bos taurus, UniProt P16116); construct: preparation of the enzyme from bovine lens; from tissue; host or cells: bovine lens; experiment: aldose reductase inhibiting effects in vitro (Table I, IN VITRO); type: biochemical, bovine (lens); conditions: 4 × 10^-8 M; read-out: % Inhibition IN VITRO
Answer each item with its documented inhibition at 0.04 µM.
One number for each entry, in %.

COc1ccc2c(C(=S)N(C)CC(=O)O)c(Cl)ccc2c1C(F)(F)F [Example 10]; 51
COc1ccc2c(C(F)(F)F)c(OC)ccc2c1C(=O)N(C)CC(=O)O [OCH3 O OH]; 56
COc1ccc2c(C(=O)N(C)CC(=O)O)c(F)ccc2c1C(F)(F)F [F O OH]; 49
CCCCOc1ccc2c(C(F)(F)F)c(OC)ccc2c1C(=O)N(C)CC(=O)O [Example 12]; 25

Parameters: items (list). Returns: inhibition at 0.04 µM for each item.
1. COc1ccc2c(C(=S)N(C)CC(=O)O)c(F)ccc2c1C(F)(F)F [F S OH]
2. CCOc1ccc2c(C(F)(F)F)c(OC)ccc2c1C(=S)N(C)CC(=O)O [Example 4]
3. COc1ccc2c(C(=S)N(C)CC(=O)O)c(OCC(F)(F)F)ccc2c1C(F)(F)F [Example 5]
4. COc1ccc2c(C(=O)N(C)CC(=O)O)c(OCC(F)(F)F)ccc2c1C(F)(F)F [Example 3]
5. COc1ccc2c(C(=O)N(C)CC(=O)O)c(Cl)ccc2c1C(F)(F)F [Cl O OH]

// result
1: 45; 2: 50; 3: 49; 4: 32; 5: 36

* * *

biological target: aldose reductase (Bos taurus, UniProt P16116); construct: preparation of the enzyme from bovine lens; from tissue; host or cells: bovine lens; assay: aldose reductase inhibiting effects in vitro (Table I, IN VITRO); format: biochemical, bovine (lens); details: 10^-5 M; read-out: % Inhibition IN VITRO
Kindly return 1.0 if reported inhibition at 10 µM is no lower than 9%; return 0.0 if it is lower.

CCCCOc1ccc2c(C(F)(F)F)c(OC)ccc2c1C(=O)N(C)CC(=O)O; 1.0
CCOC(=O)NC(=O)CN(C)C(=O)c1c(F)ccc2c(C(F)(F)F)c(OC)ccc12; 0.0
CCOc1ccc2c(C(F)(F)F)c(OC)ccc2c1C(=O)N(C)CC(=O)O; 1.0
COc1ccc2c(C(=S)N(C)CC(N)=O)c(F)ccc2c1C(F)(F)F; 0.0
COc1ccc2c(C(=O)N(C)CC(=O)O)c(Br)ccc2c1C(F)(F)F; 1.0

// query Check this compound for inhibition at 10 µM at or above 9%: `COc1ccc2c(C(=O)N(C)CC(N)=O)c(OCC(F)(F)F)ccc2c1C(F)(F)F`
// result 0.0

// query Check this compound for inhibition at 10 µM at or above 9%: `COc1ccc2c(C(F)(F)F)c(OC)ccc2c1C(=O)N(C)CC(=O)O`
// result 1.0

* * *

biological target: aldose reductase (Bos taurus, UniProt P16116); construct: preparation of the enzyme from bovine lens; from tissue; host or cells: bovine lens; assay: aldose reductase inhibiting effects in vitro (Table I, IN VITRO); format: biochemical, bovine (lens); conditions: 10^-6 M; read-out: % Inhibition IN VITRO
Answer each item with its documented inhibition at 1 µM.
One number for each entry, in %.

CCOc1ccc2c(C(F)(F)F)c(OC)ccc2c1C(=S)N(C)CC(=O)O; 95
COc1ccc2c(C(=O)N(C)CC(N)=O)c(F)ccc2c1C(F)(F)F; 0
COc1ccc2c(C(=O)N(C)CC(=O)O)c(Br)ccc2c1C(F)(F)F; 90
COc1ccc2c(C(=O)N(C)CC(=O)O)c(Cl)ccc2c1C(F)(F)F; 87
COc1ccc2c(C(F)(F)F)c(OC)ccc2c1C(=O)N(C)CC(=O)O; 95
CCCCOc1ccc2c(C(F)(F)F)c(OC)ccc2c1C(=O)N(C)CC(=O)O; 88

Parameters: items (list). Returns: inhibition at 1 µM for each item.
1. COc1ccc2c(C(=S)N(C)CC(=O)O)c(Cl)ccc2c1C(F)(F)F
2. COc1ccc2c(C(=O)N(C)CC(N)=O)c(OCC(F)(F)F)ccc2c1C(F)(F)F
3. COc1ccc2c(C(=O)N(C)CC(=O)O)c(OCC(F)(F)F)ccc2c1C(F)(F)F
4. CCOC(=O)NC(=O)CN(C)C(=O)c1c(F)ccc2c(C(F)(F)F)c(OC)ccc12
5. CCOc1ccc2c(C(F)(F)F)c(OC)ccc2c1C(=O)N(C)CC(=O)O

// result
[91, 1, 91, 2, 89]
